- System: NCI-H522 lung
- Protocol Details: NCI tumour cell line growth inhibition, 48 h
Endpoint Label: TGI (µM)
State just the number; it will be interpreted in µM.

Illustrative cases are given below, each with its answer.
COc1cccc(/C=N/[N-]C(N)=O)c1[O-].[Ni+2].[OH3+] : 0.25
OCc1ccc(N2CCc3cc(F)ccc3C2)cc1Cl : 25.9
Cc1ccc(-c2nc(N3CCNCC3)c3oc(-c4ccccc4)nc3n2)cc1 : 3.43

// TGI lookup, molecule = Cc1cc(S(=O)(=O)Nc2n[nH]c(Nc3ccc4ccccc4c3)n2)c(S)cc1Cl , result: 84.2

Quick note, TGI for O=C(Nc1ccc(-n2ccc3c(NC(=O)c4ccccc4)nccc32)cc1)Nc1cccc(C(F)(F)F)c1 landed at 15.3

The value of TGI measured for the molecule C/C(=N/O)c1ccc2c(c1)/C(=N/O)c1ccccc1-2 turned out to be 35.2

TGI reported for this molecule CCN1CCN(c2nc3ccccc3nc2C(=O)c2ccc(OC)c(OC)c2)CC1 : 27.9

For this molecule ( CCOC(=O)/C(C#N)=C1\SS/C(=C(/C#N)C(=O)OCC)S1 ), measured TGI is 7.59

# TGI (molecule: O=C(/C=C/C(Cl)(Cl)Cl)Nc1ccc(Cl)cc1 ) is 1.43

Documented TGI of CCN(CC)CCC(CNc1ccnc2cc(Cl)ccc12)c1ccccc1 (configuration not stated) : 11.7

----------
- Tested on: KM12 colon
- Protocol Details: NCI tumour cell line growth inhibition, 48 h
Reported TGI values are given for each entry in this list.

// C/C(=N\n1c(O)c(C#N)cc(C#N)c1=O)c1ccncc1 : TGI value = > 100 µM

Entry COc1cccc(/C=C/c2ccnc3ccccc23)c1OC ; TGI = > 10 µM

The molecule listed as OCCCSCCO shows TGI equal to > 100 µM

Record COc1ccc(Cn2cc3c(c2)-c2oncc2CC3)cc1OC . Reported TGI: 1.27 µM

----------
- System: HOP-92 NSCLC
- Protocol Details: NCI tumour cell line growth inhibition, 48 h; in the data active = GI50 below about 0.43 µM; inactive = the rest
Hi! Could you answer with just one of these? active, inactive

These recorded examples may help you get a feel for the data.
O=C(Cc1csc2nc(-c3ccc(Cl)cc3)cn12)N/N=C/c1ccccc1O : inactive
CCCCCCCCCCCCCCCCCCOc1ccccc1CC(=O)OCC[N+](CC)(CC)CC : inactive
C/C(=N\n1c(O)c(C#N)cc(C#N)c1=O)c1ccncc1 : inactive
COc1ccc(Cn2cc3c(c2)-c2oncc2CC3)cc1OC : inactive
N#Cc1ccccc1C#C/C=C\C#CC#C/C=C\C#Cc1ccccc1C#N : inactive
O=C1c2cccnc2C(=O)c2c1c(C(=O)NCCn1ccnc1)c1ccccn21 : inactive
Clc1ccc(Nc2nc(Nc3ccccc3)nc(Nc3ccc(-c4cc(-c5ccc(Cl)cc5)on4)cc3)n2)cc1 : inactive
OCc1ccc(N2CCc3cc(F)ccc3C2)cc1Cl : active
CCCCCC[C@@H](C)Nc1nc2ccccc2c2occc12 : inactive
COc1ccc2nc(-c3ccccc3)cc(Nc3cccc(C(C)=O)c3)c2c1 : inactive

Q: // param item: Cc1ccc(-c2nc(N3CCNCC3)c3oc(-c4ccccc4)nc3n2)cc1 ; yields the recorded call
Ans: inactive

Q: # fetch the recorded call for CCN(CC)CCC(CNc1ccnc2cc(Cl)ccc12)c1ccccc1 (stereo not drawn) here
Ans: inactive

Q: Tell me the assay call for COc1ccc2nc3cc([N+](=O)[O-])ccc3c(NNc3ccccc3)c2c1 please.
Ans: inactive

----------
- Test system: RPMI-8226 leukemia
- Protocol Details: NCI tumour cell line growth inhibition, 48 h
# TGI values compiled below

Nc1nnnc2nc[nH]c12 : > 85.8 µM
O=C(O)c1c(Cl)c(Cl)c(Cl)c(Cl)c1C(=O)Nc1ccc2cn[nH]c2c1 : > 100 µM
O=C(O)C1CCCCN1C(=O)Cc1c[nH]c2ccccc12 (stereo not given) : > 100 µM
CSC1=C(C(=O)Nc2ccc(C)cc2)C(N)=NC1=O : > 100 µM
COC(=O)C1=C(OC(=O)/C=C/c2ccc(Cl)cc2)C(C(=O)OC)[C@]2(O)[C@@H](C(=O)OC)[C@H]1C[C@@H](c1ccccc1)[C@@H]2C(=O)OC (stereo not given in full) : > 100 µM
CC(=O)OC(C)(C)/C=C/C(=O)[C@](C)(O)[C@H]1[C@H](O)C[C@@]2(C)[C@@H]3CC=C4[C@@H](C=C(O)C(=O)C4(C)C)[C@]3(C)C(=O)C[C@]12C : 771 nM [middle of 4 runs]
COc1ccc(-c2nn(-c3ccc(NC(=O)c4cc(Cl)cc(Cl)c4)cc3)cc2-c2ccncc2)cc1Cl : 3.26 µM
CCOC(=O)/C(C#N)=C1\SS/C(=C(/C#N)C(=O)OCC)S1 : 73.5 µM

Query O=C1NC(=S)NC(=O)C1=Cc1ccc(-c2ccccc2)cc1 on RPMI-8226 leukemia; TGI returned: > 100 µM

Recorded TGI for N#Cc1ccccc1C#C/C=C\C#CC#C/C=C\C#Cc1ccccc1C#N on RPMI-8226 leukemia was > 100 µM

# TGI measured on RPMI-8226 leukemia for item Clc1ccc(CCc2ccncn2)c(Cl)c1 = > 100 µM

The value of TGI recorded for Cc1ccc(NC(=O)Nc2c(Cl)cccc2Cl)cn1 when tested on RPMI-8226 leukemia reads > 100 µM

----------
We begin with a simple list: items and their reported TGI.
- Test system: NCI-H522 lung
- Protocol Details: NCI tumour cell line growth inhibition, 48 h

The cases that follow already have their TGI on record.
CCN(CC)C(=S)SC1C(=O)NC(=O)NC1=O : > 100 µM
CS(C)(=O)=Nn1c(=O)n2n(c1=O)C1c3ccccc3C2c2ccccc21 : > 100 µM
Clc1ccc2ncc(-c3cccc(NC4CNC4)n3)n2c1 : 27.9 µM
O=C(O)c1c(Cl)c(Cl)c(Cl)c(Cl)c1C(=O)Nc1ccc2cn[nH]c2c1 : > 100 µM

The reported value for CCCCCCSCC/C(C)=N\OC in terms of TGI is > 100 µM

Short answer for Cc1ccc2nc(-c3ccc(NC(=O)c4ccc(N)cc4)c(S(=O)(=O)O)c3)sc2c1 : TGI was > 100 µM

The compound identified as CC(C)[Si]1(C(C)C)OCC2OC(n3c(C(=O)c4ccccc4)cc(=O)[nH]c3=O)CC2O[Si](C(C)C)(C(C)C)O1 (stereo not given) registered its TGI at 3.55 µM

Given item CCOC(=O)c1nc2ccccc2nc1Nc1ccc(OC)cc1 , the value recorded as its TGI is > 100 µM

Per the record, C[C@@]1(Cc2ccccc2)C(=O)N2[C@@H](CO)C(c3ccccc3)O[C@]2(C)c2ccccc21 (stereo not given in full) has TGI of > 100 µM

Documented TGI of Cc1nc(-n2nc(-c3ccccc3)cc2-c2ccccc2)sc1C(=O)/C=C/c1ccc(Cl)c(Cl)c1 : 21.6 µM

Value of measured TGI for the entry [N-]=[N+]=Nc1ccc2c(c1)Sc1ccccc1N2CCCCN1CCN(Cc2ccc(C(=O)c3ccc(CSCC(N)C(=O)O)cc3)cc2)CC1 (stereo not given) : 33.7 µM

Record COC(=O)C1C(=O)O[C@@H](c2ccc(OC)c(OC)c2OC)C1C(=O)OC (mixture of isomers) . Reported TGI: > 100 µM

Short answer for CN(C)CCn1cnc2ncccc2c1=O : TGI was > 100 µM

Looking up COc1cc(-c2ccc(NC(=O)SCCC(=O)O)cc2OC)ccc1NC(=O)SCCC(=O)O , I see its TGI listed as > 100 µM

Please fill in: TGI reported for COc1cc(C(c2cccc3ccccc23)N2C(=O)CCC2C(=O)O)cc(OC)c1OC (stereo not given) = > 100 µM

Briefly, TGI measured for CC(=O)OCC1OC(n2c(N)c(C#N)c(C)c(C#N)c2=S)C(OC(C)=O)C(OC(C)=O)C1OC(C)=O (stereo not given) : > 100 µM

# TGI of CC1CCC(=O)C(C(O)CC2CC(=O)N(c3ccccc3)C(=O)C2)C1 (stereo not given) = > 100 µM

CN(C)C=NC1CCC(C(C)(C)C)CC1 (stereo not given) has a reported TGI of 31.8 µM

CC(=O)OC(C)(C)/C=C/C(=O)[C@](C)(O)[C@H]1[C@H](O)C[C@@]2(C)[C@@H]3CC=C4[C@@H](C=C(O)C(=O)C4(C)C)[C@]3(C)C(=O)C[C@]12C yielded TGI of 196 nM [middle of 4 runs]

Item: COc1ccccc1-n1c(NN)nc2ccc(Br)cc2c1=O | TGI: 63.2 µM

----------
Let's look at some molecules and their measured TGI.
- System: SF-268 CNS
- Protocol Details: NCI tumour cell line growth inhibition, 48 h

Consider the worked cases shown below.
O=S(=O)(O)c1ccc2c(N=Nc3ccc(N=Nc4ccccc4)cc3)c(O)c(S(=O)(=O)O)cc2c1 : > 100 µM
O/C(=C\c1nc2ccccc2nc1/C=C(\O)c1ccc(F)cc1)c1ccc(F)cc1 : > 100 µM
O=C(c1ccccc1)c1ccc2c(c1)nc1n2C(c2c(F)cccc2F)SC1 (configuration not stated) : > 100 µM
COc1cccc(C2=C(c3cn(C)c4cc(F)ccc34)C(=O)NC2=O)c1 : > 25 µM

TGI recorded for this molecule, CC(=O)[CH-]C(=O)c1ccccc1.CC(=O)[CH-]C(=O)c1ccccc1.CC(C)CCC[C@H](C)C1CCC2[C@@H]3CC=C4C[C@@H]([O-])CC[C@]4(C)C3CC[C@@]21C.CC(C)CCC[C@H](C)C1CCC2[C@@H]3CC=C4C[C@@H]([O-])CC[C@]4(C)C3CC[C@@]21C.Cl.[Ti+4] (some centres not stated) , is > 25 µM

Entry COc1cccc2nc3ccccc3nc12 , TGI reported as > 100 µM

The value of TGI measured for the molecule COC1CC(C)([N+](=O)[O-])C(O)C(C)O1 (configuration not stated) turned out to be > 100 µM
